Cited source for all entries: ChEMBL document CHEMBL1123086

System: Friend leukemia cell line
experimentSummary: Inhibitory activity against cellular differentiation in Friend erythroleukemia cells as percentage of benzidine - positive cells.
Type: functional, Mus musculus
Rule: Benzidine positive cells under 6% gives f, otherwise t.

Request: Quick check: does [N-]=[N+]=Nc1nc2c(O)nc(N)nc2n1C1O[C@H](CO)[C@@H](O)[C@H]1O (some centres undefined) have Benzidine positive cells greater than or equal to 6%?
Result: t

Request: Exam item: decide whether the reported Benzidine positive cells for Nc1nc(O)c2ncn([C@H]3C[C@H](O)[C@@H](CO)O3)c2n1 [DEOXYGUANOSINE] is at least 6%.
Result: f

Request: Exam item: decide whether the reported Benzidine positive cells for Nc1nc2c(nc(O)n2[C@@H]2O[C@H](CO)[C@@H](O)[C@H]2O)c(=O)[nH]1 [8-HYDROXYGUANOSINE] is at least 6%.
Result: t

Request: Check the entry Nc1nc2c(ncn2[C@@H]2O[C@H](CO)[C@@H](O)[C@H]2O)c(=O)[nH]1 [GUANOSINE] : does Benzidine positive cells equal or exceed 6%?
Result: f

* * *

Tested on: Friend leukemia cell line
experimentSummary: Inhibitory activity against cellular replication in Friend erythroleukemia cells as growth inhibition.
Assay type: functional
experimentalParameters: Mus musculus, read-out: ID50 (the source's name)
measuredEndpoint: IC50

Use these answered entries as a reference point.
| compound | measuredOn | IC50 |
| --- | --- | --- |
| CN(C)c1nc2c(=O)[nH]c(N)nc2n1[C@@H]1O[C@H](CO)[C@@H](O)[C@H]1O | Friend leukemia cell line | > 5 mM |
| Nc1nc(O)c2nc(OCc3ccccc3)n(C3O[C@H](CO)[C@@H](O)[C@H]3O)c2n1 (stereo partly drawn) | Friend leukemia cell line | > 8 mM |

# context switch: different compound, same IC50
Request: Lookup: IC50 / Friend leukemia cell line / CSc1nc2c(O)nc(N)nc2n1C1O[C@H](CO)[C@@H](O)[C@H]1O (stereo partly drawn)
Result: > 8 mM

* * *

Consider the following compounds and their measured pIC50 readings.
System: Friend leukemia cell line
experimentSummary: Inhibitory activity against cellular replication in Friend erythroleukemia cells as growth inhibition.
Assay type: functional
experimentalParameters: Mus musculus, read-out: ID50 (the source's name)
pIC50: −log10 of the molar value.

Check out these entries, answers already filled in.
| compound | pIC50 |
| --- | --- |
| Nc1nc2c(nc(O)n2[C@@H]2O[C@H](CO)[C@@H](O)[C@H]2O)c(=O)[nH]1 [8-HYDROXYGUANOSINE] | 2.10 |
| COc1nc2c(O)nc(N)nc2n1[C@H]1C[C@H](O)[C@@H](CO)O1 | < 2.30 |
| Nc1nc(O)c2nc(NO)n(C3O[C@H](CO)[C@@H](O)[C@H]3O)c2n1 (stereo partly specified) | < 2.30 |
| COc1nc2c(O)nc(N)nc2n1C1O[C@H](CO)[C@@H](O)[C@H]1O (stereo partly specified) | < 2.10 |

Request: Quick check: pIC50 of Nc1nc(O)c2nc(OCc3ccccc3)n([C@H]3C[C@H](O)[C@@H](CO)O3)c2n1 ?
Result: < 2.30

Request: Fill in the blank: the reported pIC50 of Nc1nc(O)c2nc(Br)n([C@H]3C[C@H](O)[C@@H](CO)O3)c2n1 is ____.
Result: < 2.30

* * *

System: Friend leukemia cell line
experimentSummary: Inhibitory activity against cellular differentiation in Friend erythroleukemia cells as percentage of benzidine - positive cells.
Format: functional, Mus musculus
compounds and their reported Benzidine positive cells

Request: Look up Benzidine positive cells with Friend leukemia cell line for this compound: Nc1nc2c(nc(Br)n2[C@@H]2O[C@H](CO)[C@@H](O)[C@H]2O)c(=O)[nH]1
Result: 6%

Request: Record CN(C)c1nc2c(=O)[nH]c(N)nc2n1[C@@H]1O[C@H](CO)[C@@H](O)[C@H]1O : what is its Benzidine positive cells with Friend leukemia cell line?
Result: 68%

Request: Enter reported Benzidine positive cells observed with Friend leukemia cell line for C[S+](C)[O-] [DIMETHYL SULFOXIDE]
Result: 70%

Request: Please provide the recorded Benzidine positive cells for Nc1nc(O)c2nc(S)n([C@@H]3O[C@H](CO)[C@@H](O)[C@H]3O)c2n1 , tested on Friend leukemia cell line.
Result: 4%

Request: Tell me reported Benzidine positive cells for CSc1nc2c(O)nc(N)nc2n1C1O[C@H](CO)[C@@H](O)[C@H]1O (stereo not given in full) , tested with Friend leukemia cell line.
Result: 11%
